Test system: aorta tissue
Assay: Inhibition of calcium dependent smooth muscle contraction, aorta (P#176 Aorta)
Parameters: species or system dog
Conditions: Canis lupus familiaris, 0.1 μM; 50 mM KCl contraction; read-out: P#176 Aorta % INHB/μM
Measured inhibition at 0.1 µM accompanies every entry in the list below.
# output: bare number, implied unit %

Below are worked cases with known answers.
Record CCOC(=O)C1=C(C)NC2=C(C1c1ccccc1[N+](=O)[O-])S(=O)(=O)CCNC2 (centres unmarked) : what is its inhibition at 0.1 µM with aorta tissue? 47

Record CCOC(=O)C1=C(C)NC2=C(C1c1cccc(Cl)c1Cl)S(=O)(=O)CCN(C)C2 (centres unmarked) : what is its inhibition at 0.1 µM with aorta tissue? 96

Record CCOC(=O)C1=C(C)NC2=C(C1c1cccc(Cl)c1Cl)S(=O)(=O)c1ccccc1N(C=O)C2 (centres unmarked) : what is its inhibition at 0.1 µM with aorta tissue? 50

Record CC1=C(C(=O)OCCO)C(c2cccc(Cl)c2Cl)C2=C(CN(C)CCS2(=O)=O)N1 (centres unmarked) [2,3-dichloro / Me / 2-hydroxyethyl] : what is its inhibition at 0.1 µM with aorta tissue? 14

Proceeding to the next compound to report its inhibition at 0.1 µM.
Record CC1=C(C(=O)OCCN(C)Cc2ccccc2)C(c2cccc(Cl)c2Cl)C2=C(CNCCS2(=O)=O)N1 (centres unmarked) : what is its inhibition at 0.1 µM with aorta tissue? 48
